Just for reference, PubChem BioAssay AID686978 is where these values come from.

# protocol text: qHTS for Inhibitors of human tyrosyl-DNA phosphodiesterase 1 (TDP1): qHTS in cells in absence of CPT; note: nearly all actives have a fitted effect of over 55% in size
# condition details: DT40 Tdp1-/- hTDP1 cells, no CPT, ATP luminescence, 48 h
About 64,000 (15%) of roughly 420,000 compounds were called active. About 27% were inconclusive and are not listed. Calls come from the whole dose curve; as a rule, active = well fitted inhibition curve with a large enough effect; inconclusive = small, poorly fitted or top-dose-only effect; inactive = flat fitted curve, though single readings scatter. The list is a sample of the results.
// classify into t for active, f for inactive

Write down the call the test reported for this compound. Item: COc1ccc(NC(=O)CCCN2C(=O)CCn3nc(-c4cn(C)c5ccccc45)cc32)cc1OC
t

Write down the call the test reported for this compound. Item: COC(=O)C1=C(C)NC(=O)NC1/C=C/c1ccccc1 (centres undefined)
f

Write down the call the test reported for this compound. Item: Nc1nnc(SCC(=O)NCC(=O)Nc2ccc(F)c(F)c2F)s1
f

Write down the call the test reported for this compound. Item: CCOC(=O)c1c(NC(=O)C2(C)Cc3ccccc3C(=O)O2)sc2c1CCCC2 (centres undefined)
t

Write down the call the test reported for this compound. Item: O=C(COc1ccc(S(=O)(=O)Nc2cccc(C(F)(F)F)c2)cc1)N1CCOCC1
f

Write down the call the test reported for this compound. Item: CN(C)c1ccc(/C=C/c2sc3ccccc3[n+]2C)cc1
t

Write down the call the test reported for this compound. Item: O=C(COC(=O)/C=C/c1cccs1)NC1CCCCC1
f

Write down the call the test reported for this compound. Item: Cc1cc(C)c(C#N)c(N2CCC(C(N)=O)CC2)n1
f

Write down the call the test reported for this compound. Item: Cn1c(Cc2csc(N)n2)nnc1SC/C=C/c1ccccc1
f

====

# protocol text: qHTS for Inhibitors of human tyrosyl-DNA phosphodiesterase 1 (TDP1): qHTS in cells in absence of CPT; note: nearly all actives have a fitted effect of over 55% in size
# condition details: DT40 Tdp1-/- hTDP1 cells, no CPT, ATP luminescence, 48 h
# Experimental: Human tyrosyl-DNA phosphodiesterase 1 (TDP1) is a novel repair gene, and we propose to use it as a new target for anticancer drug development. […] For the primary screen, Tdp1-/-;hTDP1 cells will be exposed to small molecules in the presence or absence of CPT, and their growth kinetics will be evaluated after 48 hours by measuring ATP activity. […] The hit compounds will then be evaluated in the presence or absence of CPT using Tdp1-/- cells. […]
Out of some 420,000 compounds screened, about 64,000 (15%) were called active. Roughly 27% stayed inconclusive and do not appear here. Calls come from the whole dose curve; as a rule, active = well fitted inhibition curve with a large enough effect; inconclusive = small, poorly fitted or top-dose-only effect; inactive = flat fitted curve, though single readings scatter. Only a sample is shown.
// classify into 1.0 for active, 0.0 for inactive

INSERT INTO results (compound, category_label) VALUES
  ('NC1=NC(=O)C2(COC(c3ccccc3Cl)OC2)S1 (centres undefined)', 0.0),
  ('COc1ccc(CNc2nc(-c3ccccc3)nn2C(=O)c2ccccc2OC)cc1', 1.0),
  ('COc1ccc(F)cc1C(=O)C1CCCN(C(=O)CCc2ccccn2)C1 (centres undefined)', 1.0),
  ('CCCSC1=C(C#N)C(c2ccccc2C)C(C(=O)OC)C(=O)N1 (centres undefined)', 0.0),
  ('CCc1nc(C)ccc1OCC(=O)N(CC)CC', 0.0);

Write down the call the test reported for this compound. Item: COCCNC(=O)c1ccc2c(c1)ncn2-c1ccc(C)c(Cl)c1
1.0

Write down the call the test reported for this compound. Item: N#CC1(NC(=O)COc2ccc3oc4ccccc4c3c2)CCCCC1
0.0

Write down the call the test reported for this compound. Item: CN(CC(=O)Nc1cccc(F)c1)C(=O)CC1CCCC1
0.0

Write down the call the test reported for this compound. Item: O=P(c1ccc2c(c1)OCCO2)(N1CCOCC1)N1CCOCC1
0.0

Write down the call the test reported for this compound. Item: NS(=O)(=O)c1ccc(NC(=S)NNC(=O)c2cccs2)cc1
0.0

Write down the call the test reported for this compound. Item: CCC(C)(C)c1ccc(OCC(=O)N(C)C)c(C(C)(C)CC)c1
1.0

Write down the call the test reported for this compound. Item: CC1(C)CC(=O)NC=C(c2ccccc2)C1
0.0

Write down the call the test reported for this compound. Item: COc1ccc(NC(=O)CSc2nc(N)c(-c3ccccc3)c(=O)[nH]2)cc1
0.0

Write down the call the test reported for this compound. Item: O=C(CCNC(=O)c1ccc([N+](=O)[O-])cc1)Nc1ccccc1N1CCOCC1
0.0

Write down the call the test reported for this compound. Item: COc1cccc(C(=O)NC2(C(F)(F)F)C(=O)Nc3c2c(=O)[nH]c(=O)n3-c2ccc(C)cc2)c1 (centres undefined)
1.0
